Hey, just so you know, these numbers are from patent US20160200799A1.

Neutralizing activity (%) at 100 µg/ml values for the binders below.
target: Influenza virus A/Panama/2007/1999 (H3N2) (Influenza A virus A/Panama/2007/1999 (H3N2))
assay.details: cell-based or functional assay
Please state the figure in %; there is no need to write the unit.

binder | assay.endpoint | experimental.value
Group 39 representative clone F082-237, Fab-PP-type antibody (Fab, V domains shown) VH: QVQLVQSGAEVKKPGSSVKVSCKASGGIFNKYGISWVRQAPGQGLEWMGGILAIFGTTNYAQKFQGRVTISADESSTTVYMELSSLTSEDTAVYYCARGNTYYSSYFDQWGQGTLVTVSS VL: QSVLTQPPSVSVAPGQTATITCGGDKIGTGPVHWYQQMPGRAPVLLIYASTHRPSRIPERFSGSKSDNTATLSISGVGVGDEADYYCQMWDSSSVHPIVFGGGTKLTVLS | Neutralizing activity (%) at 100 µg/ml | -2.7
Group 1 representative clone F080-227, Fab-PP-type antibody (Fab, V domains shown) VH: QVQLQESGAEVKKPGSSVKVSCKASGGIFRRNAISWVRQAPGQGLEWMGGIIAIFGTANYAQKFQGRVTITADESTSTVYMELSSLRPEDTAVYYCARGPNYYENFFDYWGQGTLVTVSS VL: DIVMTQSPSSLSASVGDRLDLTCRASQDIANSLAWYKQRPGKAPELLVFGASRLEGGVPSRFSGTRAGTDFTLTISSLQPEDLGTYFCQQYFSFPRTFGQGTTLDLR | Neutralizing activity (%) at 100 µg/ml | -0.7

Please look at the following binder next.
**Q:** Neutralizing activity (%) at 100 µg/ml lookup needed for Group 37 representative clone F083-311, Fab-PP-type antibody (Fab, V domains shown) VH: QVQLVQSGSEVKKPGSSVKVSCKASGGIFRTNAISYVRQAPGQGLEWMGGITAIFGTPNYAQKFQGRVTIIADESTSTVYMELGSLTSEDTAVYYCATSGTYYVSYFDSWGQGTLVTVSS VL: DIVMTQSPGTLTLSPGERATLSCRASQSLYSSHLAWYQQKPGQPPRLLIYGASTRAPGTPDRFSGSGSGTDFTLTITALDPEDSAVYYCQQYGSSPITFGQGTRLEIK , thanks.
**A:** -8.9
